// provenance: ChEMBL document CHEMBL1153934

Exercise: for every item that follows, state its recorded Ki.
Provide only the numeric value, understood in nM.

What measured Ki is associated with CC1=CC[C@@H]2[C@@H](C1)c1c(O)cc(C3C4CC5CC(C4)CC3C5)cc1OC2(C)C (stereo not given in full) on Cannabinoid receptor 1 (Homo sapiens)? 34.9

Kindly state the measured Ki obtained for CC(=O)Nc1cccc(C(C)(C)c2cc(O)c3c(c2)OC(C)(C)[C@@H]2CC=C(C)C[C@@H]32)c1 with Cannabinoid receptor 1 (Homo sapiens). 13.7

Quick check: Ki on Cannabinoid receptor 1 (Homo sapiens), item CC1=CC[C@@H]2[C@@H](C1)c1c(O)cc(C=C3C4CC5CC(C4)CC3C5)cc1OC2(C)C ? 48.6

Find the measured Ki: item CC1=CC[C@@H]2[C@@H](C1)c1c(O)cc(CC34CC5CC(CC(C5)C3)C4)cc1OC2(C)C , target or system Cannabinoid receptor 1 (Homo sapiens). 29.3

Param readout = Ki; param system = Cannabinoid receptor 1 (Homo sapiens); param query = CC1=CC[C@@H]2[C@@H](C1)c1c(O)cc(CC3C4CC5CC(C4)CC3C5)cc1OC2(C)C (stereo not given in full) ; response: value 79.7
